Test: qHTS Assay for Identification of Small Molecule Inducers of Hypoxia Response (AID 2120); note: 0% is about no effect
Details: hypoxia response reporter cells, beta-lactamase ratio readout; series mostly up to 104 µM
Method: NIH Chemical Genomics Center [NCGC] NIH Molecular Libraries Screening Centers Network [MLSCN] National Institutes of Environmental Health Sciences [NIEHS] National Toxicology Program [NTP] […] Using a beta-lactamase reporter-gene under control of the hypoxia response element, a cell-based assay [CellSensor(TM) HRE-bla ME-180 developed by Invitrogen Corp.] was used to measure hypoxia-induced signaling. Library compounds were measured for their ability to induce the reporter gene activity. […]
Records with an inconclusive call do not appear. The source made the active and inactive calls. Calls come from the whole dose curve; as a rule, active = well fitted curve in the direction sought with a large enough effect in the signal ratio, with a control signal flat (not every such curve was filed as active); inconclusive = small, poorly fitted or top-dose-only effect, or a change in a side signal; inactive = no such curve, though single readings can be large or run the other way; the % refers to the signal ratio.

smiles-data | outcome
CCOc1ccc(NC(C)=O)cc1N | inactive
CC(=O)c1ccccn1 | inactive
S=C([S-])NCCNC(=S)[S-].[Zn+2] | inactive
CN(C)c1cccc(O)c1 | inactive

---

experiment: Cell Viability - LYMP2-013 (AID 970); settings: LYMP2-013 lymphoblastoid cells viability; series mostly up to 92.2 µM;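 note: cells exposed to compound for 24 h at 37 °C; 0% = DMSO only and full inhibition = tetraoctylammonium bromide control; nearly all actives have a fitted effect of over 55% in size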
Records with an inconclusive call do not appear. Calls of active or inactive are those of the source. The call rests on the fitted dose curve; in most records, active means well fitted cell-killing curve with a large enough effect; inconclusive means small, poorly fitted or top-dose-only effect; inactive means flat fitted curve, though single readings scatter.

compound | outcome
COC(=O)CS | inactive
CN(C)CCCNCCCN | inactive
C[C@@H]1O[C@@H](O[C@@H]2[C@@H](O)[C@H](OCCc3ccc(O)c(O)c3)O[C@H](CO[C@@H]3O[C@H](CO)[C@@H](O)[C@H](O)[C@H]3O)[C@H]2OC(=O)/C=C/c2ccc(O)c(O)c2)[C@H](O)[C@H](O)[C@H]1O | inactive
Oc1c(Cl)ccc(Cl)c1Cl | inactive
CCCCC(CC)C(=O)O (stereo not drawn) | inactive
C1CCCC1 | inactive
Nc1ccc(Cl)cc1[N+](=O)[O-] | inactive
CSc1ccc(C=O)cc1 | inactive
CN(C)CCCCl | inactive
CCN(Cc1ccccc1)c1ccccc1 | inactive
CO[Si](CCCNCCC[Si](OC)(OC)OC)(OC)OC | inactive
CCc1ccccc1O | inactive
Cc1ccc2cccnc2c1 | inactive
COC(=O)CC#N | inactive
O=C(O)CN(CC(=O)O)CC(=O)O | inactive
CSCCC=O | inactive
CC(=O)c1ccc([N+](=O)[O-])cc1 | inactive
CC(N)CN (stereo not drawn) | inactive
C=C(C)C(=O)OCC(C)C | inactive
Cc1nc2ccc(Cl)cc2[nH]1 | inactive
O=C(Cl)c1c(Cl)cccc1Cl | inactive
O=C(O)c1cccc(Cl)c1Cl | inactive
Cc1ccc(C)c([N+](=O)[O-])c1 | inactive
Cc1cc(C)cc(N)c1 | inactive
CCOCCO | inactive
CCN(C(=O)N(CC)c1ccccc1)c1ccccc1 | inactive
Nc1ccccc1S(=O)(=O)O | inactive
CCCCOCCOCCSC#N | inactive
NC(=O)c1cccc([N+](=O)[O-])c1 | inactive
Cc1ccc(CO)cc1 | inactive
CCCCC(CC)CO (stereo not drawn) | inactive
CC(=O)Nc1ccc(N)cc1 | inactive
CC(=O)CC(C)C | inactive

---

Assay: Cellular Toxicity (caspase-3) MRC-5 (AID 659);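 note: cells exposed to compound for 16 h at 37 °C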
Conditions: MRC-5 cells, luminescence, normalized: DMSO 0%, 10 µM staurosporine 100%; series mostly up to 91.7 µM
Source text: NIH Chemical Genomics Center [NCGC] NIH Molecular Libraries Screening Centers Network [MLSCN] National Institutes of Environmental Health Sciences [NIEHS] National Toxicology Program [NTP] We have developed a 1536-well cell-based assay for quantitative high throughput screening (qHTS) against a number of cell lines to determine in vitro caspase 3/7 activity of small molecules. […] 8. Detection; Luminescence; Viewlux plate reader […]
Activity calls are given as the source filed them. The call rests on the fitted dose curve; in most records, active means well fitted curve in the direction sought with a large enough effect; inconclusive means small, poorly fitted or top-dose-only effect, or another doubt; inactive means no such curve, though single readings can be large or run the other way.

molecule | outcome
Cc1ccc(C)c(N)c1 | inactive
CCNc1ccccc1 | inactive
[O-]/[N+](=N\O)c1ccccc1 | inactive
CCN(Cc1ccccc1)c1ccccc1 | inactive
C=CCOC(=O)COCCC(C)C | inactive
Cc1ccc(S(=O)(=O)NC2CCCCC2)cc1 | inactive
CC1(N)CCC(C(C)(C)N)CC1 (configuration not stated) | inactive
CCCCC(CC)COC(=O)CCCCC(=O)OCC(CC)CCCC (configuration not stated) | inactive
CCCCC=O | inactive
O=[N+]([O-])c1c(Cl)cc(Cl)cc1Cl | inactive
CCCCOCCOCCOCCCC | inactive
C=CCCCC | inactive
O=C(O)CN(CC(=O)O)CC(=O)O | inactive
O=Cc1ccc(C(=O)O)cc1 | inactive
Cc1ccc2c(c1[N+](=O)[O-])C(=O)c1ccccc1C2=O | inactive
Cc1c(C(=O)O)cccc1[N+](=O)[O-] | inactive
C/C=C1\CC2C=CC1C2 (configuration not stated) | inactive

---

biological target: Retinoic acid receptor RXR-alpha (Homo sapiens); test: qHTS assay for small molecule antagonists of retinoid X receptor alpha signaling (AID 588546); details: HEK293T RXRa-UAS-bla, beta-lactamase ratio, antagonist mode;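 note: cells stimulated with 9-cis-retinoic acid as agonist; % is set by controls: 0 for no effect and ±100 for the full control effect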
Records with an inconclusive call do not appear. Calls of active or inactive are those of the source. Calls come from the whole dose curve; as a rule, active = well fitted inhibition curve with a large enough effect in the signal ratio, with a control signal flat (not every such curve was filed as active); inconclusive = small, poorly fitted or top-dose-only effect, or effect the other way, or a change in a side signal; inactive = no such curve, though single readings can be large or run the other way; the % refers to the signal ratio.
// reported max response per item
experimental-readout: max response

compound | reported
CC(=O)OCc1ccco1 | 29.2% (inactive)
CC=O | -0.48% (inactive)
CC(=O)c1cc(C)oc1C | 0.525% (inactive)
NS(=O)(=O)O | 17% (inactive)
CC(=O)c1ccccc1[N+](=O)[O-] | 5.8% (inactive)
CO[Si](CCCNCCC[Si](OC)(OC)OC)(OC)OC | 10.8% (inactive)
CCCCCCCCC | 0.715% (inactive)
Cc1ccc(Cl)cc1N | 0.248% (inactive)
CCCCC(CC)C(=O)O (stereo not drawn) | 4.48% (inactive)
Oc1c(Cl)ccc(Cl)c1Cl | 17.5% (inactive)
COc1ccc(N)c(OC)c1 | -1.72% (inactive)
CCCC=O | 14.7% (inactive)
CCC(C)=O | 0.0353% (inactive)
CCCCC(C=O)CC (stereo not drawn) | 7.22% (inactive)
COC(=O)CC#N | -0.774% (inactive)
CCCCOCCOCCSC#N | 5.89% (inactive)
COc1cccc2sc(N)nc12 | -10.9% (inactive)
O=C(O)c1ccccc1Cl | 2.61% (inactive)

---

assay: Cell Viability - LYMP2-013 (AID 970); details: LYMP2-013 lymphoblastoid cells viability; series mostly up to 92.2 µM;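 note: cells exposed to compound for 24 h at 37 °C; 0% = DMSO only and full inhibition = tetraoctylammonium bromide control; nearly all actives have a fitted effect of over 55% in size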
Inconclusive results are not listed. Calls of active or inactive are those of the source. Calls come from the whole dose curve; as a rule, active = well fitted cell-killing curve with a large enough effect; inconclusive = small, poorly fitted or top-dose-only effect; inactive = flat fitted curve, though single readings scatter.

compound | outcome
CC(=O)CCc1ccccc1 | inactive
NCCCCCCN | inactive
CCNS(=O)(=O)c1ccc(C)cc1 | inactive
COCCOC(=O)c1ccccc1C(=O)OCCOC | inactive
Clc1cc(Cl)cc(Cl)c1 | inactive
Cc1ccc(C)cc1 | inactive
OC(CCl)CCl | inactive
CCCOCC(C)O (configuration not stated) | inactive
COc1ccc(OC)cc1 | inactive
CCC(C)=O | inactive
CC1CCC2CC1C2(C)C (configuration not stated) | inactive
CCCCCCCCC | inactive
CC(C)(O)CCC(C)(C)O | inactive
FB(F)F | inactive
CC(=O)c1cccc([N+](=O)[O-])c1 | inactive
CC(=O)c1ccccn1 | inactive
O=c1[nH][nH]c(=O)c2cc([N+](=O)[O-])ccc12 | inactive

---

test: qHTS assay for small molecule disruptors of the mitochondrial membrane potential - 5 hr assay (AID 651755); conditions: JC-1-type ratio dye; series mostly up to 92.2 µM; note: nearly all actives have a fitted effect of over 40% in size
Results filed as inconclusive are left out. Calls of active or inactive are those of the source. Calls follow the shape of the full dose curve.
Outcomes: 1 (yes) for active, 0 (no) for inactive

compound | assigned-class
Cc1cc(C(=O)O)ccc1[N+](=O)[O-] | 0 (no)
CCOCC(=O)O | 0 (no)
O=[N+]([O-])c1cc(C(F)(F)F)ccc1Cl | 0 (no)
O=C1OC(=O)c2cc([N+](=O)[O-])ccc21 | 0 (no)
C=CCn1c(=O)n(CC=C)c(=O)n(CC=C)c1=O | 0 (no)
COc1ccccc1[N+](=O)[O-] | 0 (no)
O=C(O)c1cccc(Cl)c1Cl | 0 (no)
Cc1ccccc1C(N)=O | 0 (no)
CC(=O)c1nccs1 | 0 (no)
N#CCc1ccccc1[N+](=O)[O-] | 0 (no)
CC(C)C=O | 0 (no)
Clc1cc(Cl)cc(Cl)c1 | 0 (no)
COc1ccc(OC)cc1 | 0 (no)
Nc1nc(CC(=O)O)cs1 | 0 (no)
NC(=O)/N=N/C(N)=O | 0 (no)
O=CNc1ccccc1 | 0 (no)
CCCCCCCCCCCCC1CO1 (configuration not stated) | 0 (no)
CCCCC(CC)CO (configuration not stated) | 0 (no)
C/C=C(/C)C#N | 0 (no)
CCCCC(=O)N(C)C | 0 (no)
CCCC(Cl)CCCC(Cl)CCC(Cl)CCC(Cl)CCC(Cl)CCCC(Cl)CCC (configuration not stated) | 0 (no)
CCC(C)(C)C(=O)O | 0 (no)
CC(=O)OC(C)=O | 0 (no)
Cc1cccc(C)c1[N+](=O)[O-] | 0 (no)
ClC/C=C/CCl | 0 (no)
CCCOCC(C)OCC(C)O (configuration not stated) | 0 (no)
c1ccsc1 | 0 (no)
CNc1ccccc1 | 0 (no)
CCN(Cc1ccccc1)c1ccccc1 | 0 (no)
CCCCC(C=O)CC (configuration not stated) | 0 (no)
Nc1nc2ccccc2[nH]1 | 0 (no)
CC(=O)Nc1ccc(N)cc1 | 0 (no)
Cc1ccco1 | 0 (no)
CC(C)Cc1nccs1 | 0 (no)
CN(C)CCCCl | 0 (no)
Cc1ccccc1C#N | 0 (no)
CC(=O)OCc1ccco1 | 0 (no)
C=CCCCCCC | 0 (no)
O=C(O)c1ccccc1[N+](=O)[O-] | 0 (no)
O=[N+]([O-])c1ccc(NCCO)c(OCCO)c1 | 0 (no)
ON=C1CCCCC1 | 0 (no)
ClCCl | 0 (no)
O=C1NC(=O)c2cc([N+](=O)[O-])ccc21 | 0 (no)
O=C(O)CNC(=O)c1ccc([N+](=O)[O-])cc1 | 0 (no)
O=[N+]([O-])c1cccc(C(F)(F)F)c1 | 0 (no)
Cc1ccc2ncccc2c1 | 0 (no)
CC(C)c1ccccc1 | 0 (no)
Cc1ccccc1C(=O)O | 0 (no)
CC(C)(C)c1ccc(OCC2CO2)cc1 (configuration not stated) | 0 (no)
O=C1CCCCC1 | 0 (no)
O=C(O)c1cccc([N+](=O)[O-])c1 | 0 (no)
CCc1ccccc1 | 0 (no)
CCNc1cc(O)ccc1C | 0 (no)
CC(=O)Nc1cccc(N)c1 | 0 (no)
C[C@@H]1CC2(OC[C@]3(C)O[C@H]23)O[C@H]2C[C@@]3(C)[C@@H]4CC[C@H]5C(C)(C)C(O[C@@H]6OC[C@@H](O)[C@H](O)[C@H]6O)CC[C@@]56C[C@@]46CC[C@]3(C)[C@@H]12 (some centres not stated) | 0 (no)
O=C1OC(=O)c2c(Cl)c(Cl)c(Cl)c(Cl)c21 | 0 (no)
CCCCOCCOCCOCCCC | 0 (no)
CCNc1ccccc1 | 0 (no)
CCOc1cccc(N)c1 | 0 (no)
Nc1cc(Cl)c([N+](=O)[O-])cc1O | 1 (yes)
CCC(=O)/C=C/C1C(C)=CCCC1(C)C (configuration not stated) | 0 (no)
CC(=O)Nc1ccc(C)cc1 | 0 (no)
Cc1ccc(Cl)cc1 | 0 (no)
Nc1cc([N+](=O)[O-])ccc1C(=O)O | 0 (no)
CCCCC=O | 0 (no)
CN(C)c1cccc(O)c1 | 0 (no)
CCCCCNCCCCC | 0 (no)
